Measured OD450 nm, listed per entry for reference.
- measurementTarget: T1, recombinant cyno monkey PCSK9 protein (cyno monkey, UniProt A8T666 31-692 (rhesus entry), limits assumed, biotin-labelled in the ELISA (Biotin labeling kit))
- T1 construct: also called cyno PCSK9; Cyno Monkey PCSK9-His
- T1 sequence (A8T666 31-692 limits assumed): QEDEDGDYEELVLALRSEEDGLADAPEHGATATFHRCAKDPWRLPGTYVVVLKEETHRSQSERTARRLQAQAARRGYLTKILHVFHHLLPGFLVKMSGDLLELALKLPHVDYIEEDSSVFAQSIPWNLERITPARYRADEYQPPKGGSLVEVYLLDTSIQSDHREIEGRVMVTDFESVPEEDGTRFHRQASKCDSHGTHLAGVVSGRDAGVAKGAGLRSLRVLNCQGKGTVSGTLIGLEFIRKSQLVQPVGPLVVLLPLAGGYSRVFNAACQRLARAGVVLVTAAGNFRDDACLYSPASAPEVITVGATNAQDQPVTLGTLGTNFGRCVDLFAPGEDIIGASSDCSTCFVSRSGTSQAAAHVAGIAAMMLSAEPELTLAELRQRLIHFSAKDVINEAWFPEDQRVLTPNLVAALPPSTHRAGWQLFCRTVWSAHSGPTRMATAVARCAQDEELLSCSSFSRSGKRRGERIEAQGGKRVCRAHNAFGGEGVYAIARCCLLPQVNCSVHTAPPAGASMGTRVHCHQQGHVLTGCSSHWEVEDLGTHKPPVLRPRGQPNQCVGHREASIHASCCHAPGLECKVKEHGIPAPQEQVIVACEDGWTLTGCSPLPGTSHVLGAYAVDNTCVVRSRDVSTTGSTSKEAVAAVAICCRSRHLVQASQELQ
- protocolNotes: ELISA, biotin-cyno PCSK9 on streptavidin plate; antibody 6.67 nM
Answer format: numeric, OD450 nm implied, no suffix.

For orientation, consider the following solved cases.
# OD450 nm lookup, item 152G2F7, chimeric anti-PCSK9 mAb purified from hybridoma (antibody, V domains shown, From Harbour H2L2 mice: human variable regions, rat constant regions) VH: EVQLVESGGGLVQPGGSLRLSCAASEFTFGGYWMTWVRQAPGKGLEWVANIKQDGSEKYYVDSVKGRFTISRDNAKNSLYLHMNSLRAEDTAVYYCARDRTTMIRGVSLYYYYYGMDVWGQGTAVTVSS VL: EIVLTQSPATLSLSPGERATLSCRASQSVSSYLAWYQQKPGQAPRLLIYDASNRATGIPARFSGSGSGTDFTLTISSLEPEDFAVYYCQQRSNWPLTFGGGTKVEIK 2.67

# OD450 nm lookup, item 76A1B11, chimeric anti-PCSK9 mAb purified from hybridoma (antibody, V domains shown, From Harbour H2L2 mice: human variable regions, rat constant regions) VH: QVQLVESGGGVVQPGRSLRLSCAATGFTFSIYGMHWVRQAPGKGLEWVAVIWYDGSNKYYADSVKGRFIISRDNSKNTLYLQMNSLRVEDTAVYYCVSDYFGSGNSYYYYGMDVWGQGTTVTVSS VL: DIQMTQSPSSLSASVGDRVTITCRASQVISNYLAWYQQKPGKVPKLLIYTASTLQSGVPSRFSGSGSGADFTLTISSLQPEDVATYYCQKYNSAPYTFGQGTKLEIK 2.82

# OD450 nm lookup, item 74C10A8, chimeric anti-PCSK9 mAb purified from hybridoma (antibody, V domains shown, From Harbour H2L2 mice: human variable regions, rat constant regions) VH: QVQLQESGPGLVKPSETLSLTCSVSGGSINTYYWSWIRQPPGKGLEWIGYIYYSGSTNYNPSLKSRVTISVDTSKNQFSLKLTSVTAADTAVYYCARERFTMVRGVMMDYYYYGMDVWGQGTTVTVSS VL: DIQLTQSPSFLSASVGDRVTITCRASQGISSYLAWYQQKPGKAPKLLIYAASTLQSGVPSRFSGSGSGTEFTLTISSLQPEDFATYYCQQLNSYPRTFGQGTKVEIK 2.86

Would you kindly look at the next entry?
# OD450 nm lookup, item 139G1C5, chimeric anti-PCSK9 mAb purified from hybridoma (antibody, V domains shown, From Harbour H2L2 mice: human variable regions, rat constant regions) VH: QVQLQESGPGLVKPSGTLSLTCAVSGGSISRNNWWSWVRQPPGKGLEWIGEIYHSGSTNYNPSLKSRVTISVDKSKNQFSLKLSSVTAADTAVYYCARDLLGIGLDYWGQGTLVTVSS VL: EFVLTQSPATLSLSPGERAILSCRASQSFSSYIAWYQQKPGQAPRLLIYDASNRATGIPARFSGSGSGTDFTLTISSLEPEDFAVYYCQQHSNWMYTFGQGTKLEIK 2.88
